Molecular target: Drosophila OR71a (Drosophila melanogaster, UniProt Q9VUK5)
Construct: expressed in transfected cells
Experiment: Calcium ion fluorescence (GCaMP6) assay, OR71a stable HEK293 cell line
Type: cell-based
Details: ligand concentration 1 (unit not given); threshold 0.05, below shown as 0
Record form. Attribute: DF norm AVERAGE OR71a. Fill in for each entry.
Respond numerically, and do not add a unit to the figure.

DF norm AVERAGE OR71a measured on C=C1CCC2(C(C)C)CC12 (stereo not shown) = 0

DF norm AVERAGE OR71a measured on C=C1CCC2CC1C2(C)C (stereo not shown) = 0

DF norm AVERAGE OR71a measured on OCCc1ccccc1 = 0.08619

DF norm AVERAGE OR71a measured on CC1=CCC2CC1C2(C)C (stereo not shown) = 0

DF norm AVERAGE OR71a measured on Cc1ccc(C)cc1 = 0

DF norm AVERAGE OR71a measured on CC(=O)c1ccccc1 = 0

DF norm AVERAGE OR71a measured on CCOC(=O)CC [ethyl propionate] = 0

DF norm AVERAGE OR71a measured on COC(=O)c1ccccc1O [methyl salicylate] = 0

DF norm AVERAGE OR71a measured on C=C(C)[C@H]1CC=C(C)CC1 = 0

DF norm AVERAGE OR71a measured on COC(=O)c1ccccc1 [methyl benzoate] = 0

DF norm AVERAGE OR71a measured on CCCOC(C)=O [propyl acetate] = 0

DF norm AVERAGE OR71a measured on CC/C=C/CCO = 0

DF norm AVERAGE OR71a measured on Cc1ccccc1C = 0

DF norm AVERAGE OR71a measured on Cc1cccc(C)c1 = 0

DF norm AVERAGE OR71a measured on CC(=O)OCC(C)C [isobutyl acetate] = 0

DF norm AVERAGE OR71a measured on CC(C)=CCC/C(C)=C/CC/C(C)=C/CO = 0

DF norm AVERAGE OR71a measured on CCCCOC(=O)CC [butyl propanoate] = 0

DF norm AVERAGE OR71a measured on CCCC(=O)OCC [ethyl butyrate] = 0

DF norm AVERAGE OR71a measured on O=Cc1ccccc1 = 0

DF norm AVERAGE OR71a measured on CCCCOC(C)=O [butyl acetate] = 0

DF norm AVERAGE OR71a measured on CC1=CC[C@@H](C(C)(C)O)CC1 = 0

DF norm AVERAGE OR71a measured on C=CC(C)(O)CCC=C(C)C (stereo not shown) = 0

DF norm AVERAGE OR71a measured on CCc1ccccc1 = 0

DF norm AVERAGE OR71a measured on CC(=O)OCCC(C)C [isopentyl acetate] = 0

DF norm AVERAGE OR71a measured on CCCCCCCCCC=O = 0

DF norm AVERAGE OR71a measured on CCCCCC(=O)OCC [ethyl hexanoate] = 0

DF norm AVERAGE OR71a measured on CCOC(=O)c1ccccc1 [ethyl benzoate] = 0

DF norm AVERAGE OR71a measured on CCCCCCCCC=O = 0

* * *

Target: Drosophila OR47a (Drosophila melanogaster, UniProt P81921)
Construct: expressed in transfected cells
Sequence (P81921 whole entry, one chain of several): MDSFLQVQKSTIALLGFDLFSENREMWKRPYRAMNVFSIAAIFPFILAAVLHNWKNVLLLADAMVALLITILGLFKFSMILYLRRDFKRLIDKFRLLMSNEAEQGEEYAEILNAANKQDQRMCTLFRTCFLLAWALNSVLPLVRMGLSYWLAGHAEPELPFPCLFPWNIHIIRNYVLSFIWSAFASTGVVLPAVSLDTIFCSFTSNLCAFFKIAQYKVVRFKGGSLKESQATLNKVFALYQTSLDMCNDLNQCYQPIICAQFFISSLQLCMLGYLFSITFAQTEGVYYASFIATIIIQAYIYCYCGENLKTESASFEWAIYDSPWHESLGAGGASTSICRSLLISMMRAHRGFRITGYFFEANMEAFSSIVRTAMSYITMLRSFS
Test: Calcium ion fluorescence (GCaMP6) assay, OR47a stable HEK293 cell line
Format: cell-based
Details: OR47a cell line, VOC concentration 100 μM
Record form. Attribute: OR47a response (VUAA1-normalized) at 100 μM. Fill in for each entry.
Respond numerically, and do not add a unit to the figure.

OR47a response (VUAA1-normalized) at 100 μM measured on Cc1ccc(C(C)C)cc1 = 0.00

OR47a response (VUAA1-normalized) at 100 μM measured on COC(=O)c1ccccc1O [methyl salicylate] = 0.14

OR47a response (VUAA1-normalized) at 100 μM measured on Cc1ccc(C)cc1 = 0.00

OR47a response (VUAA1-normalized) at 100 μM measured on CC1=CCC23CC1C(C)(C)C2CCC3C (stereo not shown) = 0.00

OR47a response (VUAA1-normalized) at 100 μM measured on CC/C=C\CCO = 0.10

OR47a response (VUAA1-normalized) at 100 μM measured on COC(=O)c1ccccc1 [methyl benzoate] = 0.06

OR47a response (VUAA1-normalized) at 100 μM measured on CCCCCCCCC=O = 0.00

OR47a response (VUAA1-normalized) at 100 μM measured on C=C1CCC2(C(C)C)CC12 (stereo not shown) = 0.00

OR47a response (VUAA1-normalized) at 100 μM measured on C=Cc1ccccc1 = 0.00

OR47a response (VUAA1-normalized) at 100 μM measured on Cc1cccc(C)c1 = 0.00

OR47a response (VUAA1-normalized) at 100 μM measured on CCCCCCCCCCCCCC = 0.00

OR47a response (VUAA1-normalized) at 100 μM measured on CCCOC(C)=O [propyl acetate] = 0.33

OR47a response (VUAA1-normalized) at 100 μM measured on CCCCCOC(C)=O [pentyl acetate] = 0.76

OR47a response (VUAA1-normalized) at 100 μM measured on OCCc1ccccc1 = 0.057

OR47a response (VUAA1-normalized) at 100 μM measured on CC/C=C\CCOC(C)=O [Z-3-hexenyl acetate] = 0.76

OR47a response (VUAA1-normalized) at 100 μM measured on CCCCCCCCCCC = 0.00

OR47a response (VUAA1-normalized) at 100 μM measured on C=CC(C)(O)CCC=C(C)C (stereo not shown) = 0.00

OR47a response (VUAA1-normalized) at 100 μM measured on Cc1ccccc1 = 0.00

OR47a response (VUAA1-normalized) at 100 μM measured on Cc1ccccc1C = 0.00

* * *

Target: Drosophila OR98a (Drosophila melanogaster, UniProt Q9VAZ3)
Construct: expressed in transfected cells
Sequence (Q9VAZ3 whole entry, one chain of several): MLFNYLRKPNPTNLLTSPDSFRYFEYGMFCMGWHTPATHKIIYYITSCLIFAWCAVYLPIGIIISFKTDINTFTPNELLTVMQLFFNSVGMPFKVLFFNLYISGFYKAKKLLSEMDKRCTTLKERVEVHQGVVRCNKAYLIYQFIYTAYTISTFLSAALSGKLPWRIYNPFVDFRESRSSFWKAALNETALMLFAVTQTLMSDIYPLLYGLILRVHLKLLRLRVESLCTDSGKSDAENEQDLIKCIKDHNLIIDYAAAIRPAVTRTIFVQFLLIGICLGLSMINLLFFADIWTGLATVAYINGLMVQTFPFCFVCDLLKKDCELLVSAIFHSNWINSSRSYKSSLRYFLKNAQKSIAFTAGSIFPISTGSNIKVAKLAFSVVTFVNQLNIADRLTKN
Experiment: Calcium ion fluorescence (GCaMP6) assay, OR98a stable HEK293 cell line;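 also: ligand concentrations in µM final VOC concentration in well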
Type: cell-based
Settings: HEK293, read-out: OR98a Average response (VUAA1-normalized)
measured-attribute: activation at 1 µM (%)
Please state the figure in %; there is no need to write the unit.

activation at 1 µM measured on CCOC(=O)c1ccccc1 [ethyl benzoate] = 3

activation at 1 µM measured on C=CC(O)CCCCC (centres unmarked) = 0

activation at 1 µM measured on CCCCCC(C)=O = 7

activation at 1 µM measured on COC(=O)c1ccccc1 [methyl benzoate] = 7

activation at 1 µM measured on CC(=O)OCCC(C)C [isopentyl acetate] = 3

activation at 1 µM measured on OCCc1ccccc1 = 4

activation at 1 µM measured on CCCCCC(=O)CC = 0

activation at 1 µM measured on CCCCCOC(C)=O [pentyl acetate] = 2

activation at 1 µM measured on CCCCCC(C)O (centres unmarked) = 3

activation at 1 µM measured on CCCOC(C)=O [propyl acetate] = 10

activation at 1 µM measured on CCCCCCCCCCCCCC = 0

activation at 1 µM measured on CCCCC(C)O (centres unmarked) = 0

activation at 1 µM measured on CCCCCC(O)CC (centres unmarked) = 2

activation at 1 µM measured on CC/C=C\CCOC(C)=O [z3-hexenyl acetate] = 0

* * *

Molecular target: Drosophila OR71a (Drosophila melanogaster, UniProt Q9VUK5)
Construct: expressed in transfected cells
Sequence (Q9VUK5 1-378): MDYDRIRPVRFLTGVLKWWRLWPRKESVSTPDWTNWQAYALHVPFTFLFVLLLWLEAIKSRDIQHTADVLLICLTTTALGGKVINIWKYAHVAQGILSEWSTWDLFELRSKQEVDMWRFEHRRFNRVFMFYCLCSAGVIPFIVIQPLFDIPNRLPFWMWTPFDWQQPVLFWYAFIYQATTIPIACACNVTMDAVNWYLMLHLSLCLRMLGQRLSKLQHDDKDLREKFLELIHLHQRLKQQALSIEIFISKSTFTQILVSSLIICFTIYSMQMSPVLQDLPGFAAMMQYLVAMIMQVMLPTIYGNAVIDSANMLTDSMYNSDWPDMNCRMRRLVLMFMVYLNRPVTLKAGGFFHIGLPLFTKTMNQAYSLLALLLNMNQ
Sequence (Q9VNB5 1-486 partner): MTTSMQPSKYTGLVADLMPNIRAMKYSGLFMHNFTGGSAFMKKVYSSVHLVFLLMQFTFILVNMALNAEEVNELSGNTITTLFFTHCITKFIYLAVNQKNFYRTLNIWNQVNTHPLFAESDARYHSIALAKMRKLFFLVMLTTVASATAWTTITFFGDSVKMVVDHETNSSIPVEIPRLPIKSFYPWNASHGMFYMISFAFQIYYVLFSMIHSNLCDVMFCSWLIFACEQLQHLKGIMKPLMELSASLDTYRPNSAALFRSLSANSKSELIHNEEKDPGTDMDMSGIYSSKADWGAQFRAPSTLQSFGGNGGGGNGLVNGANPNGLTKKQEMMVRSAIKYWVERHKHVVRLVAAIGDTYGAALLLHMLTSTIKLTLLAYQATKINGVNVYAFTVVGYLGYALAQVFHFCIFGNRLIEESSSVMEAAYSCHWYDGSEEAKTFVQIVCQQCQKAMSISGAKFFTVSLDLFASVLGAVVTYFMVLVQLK
Experiment: Calcium ion fluorescence (GCaMP6) assay, OR71a stable HEK293 cell line
Type: cell-based
Conditions: OR71a cell line; cc. 1 µM; VUAA1-normalized response, mean of biological replicates
measured-attribute: Average response
Respond numerically, and do not add a unit to the figure.

Average response measured on CCCCCC(C)O (centres unmarked) = 0.00

Average response measured on CCOC(=O)c1ccccc1 [ethyl benzoate] = 0.04

Average response measured on CCCC(O)CC (centres unmarked) = 0.00

Average response measured on CCCCCCCCC(CO)CCCCCC (centres unmarked) = 0.00

Average response measured on CC1=CCC[C@@]2(C)[C@@H]3CC[C@]12CC3(C)C [(−)-α-neoclovene] = 0.00

Average response measured on CCCCCO = 0.0261

Average response measured on CC1=CCC23CC1C(C)(C)C2CCC3C (centres unmarked) = 0.00

Average response measured on C=C(C)[C@H]1CC=C(C)CC1 [limonene] = 0.00
